molecular target: collagen; experiment: SPR (Biacore 2000), collagen immobilised on CM-3 chip, peptide as analyte, from on-off binding kinetics
PROPERTY_MEASURED: pKd
Lab note — pKd values are minus log10 of concentrations in M.

## Task Record request: pKd value, item RRANAALKAGELYKSILYGC [peptide … (SILY)]
## Result 5.92

Value source: patent US20150038427A1
